Target: human PAH with the R408W mutation (Homo sapiens, UniProt P00439, R408W)
Construct: expressed in transfected cells
Sequence (P00439 whole entry R408W): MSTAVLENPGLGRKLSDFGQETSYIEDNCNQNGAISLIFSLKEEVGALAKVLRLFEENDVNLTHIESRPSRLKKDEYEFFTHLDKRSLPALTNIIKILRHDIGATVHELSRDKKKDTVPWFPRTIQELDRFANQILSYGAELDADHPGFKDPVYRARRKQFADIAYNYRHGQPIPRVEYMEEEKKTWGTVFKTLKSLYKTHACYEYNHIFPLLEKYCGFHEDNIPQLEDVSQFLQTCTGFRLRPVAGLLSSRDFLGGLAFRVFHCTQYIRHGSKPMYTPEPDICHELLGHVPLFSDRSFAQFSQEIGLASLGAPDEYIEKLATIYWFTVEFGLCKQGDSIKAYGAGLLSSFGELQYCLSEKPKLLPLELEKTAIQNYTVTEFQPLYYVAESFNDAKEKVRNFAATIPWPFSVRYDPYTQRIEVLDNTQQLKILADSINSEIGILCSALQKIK
Test: Cell Based Phenylalanine Flux Assay
Settings: A375 cells expressing human R408W PAH; 24 hrs compound incubation; 13C-Tyrosine by LC-MS; average where tested multiple times; read-out: AC50

[
  {
    "MOLECULE": "O=C(Cc1nc(C(F)(F)F)cs1)N1CCc2[nH]cnc2[C@@H]1c1cc2ccccn2n1 [Example 609]",
    "TARGET SYSTEM": "human PAH with the R408W mutation (Homo sapiens, UniProt P00439, R408W)",
    "AC50": "> 5 µM"
  },
  {
    "MOLECULE": "Cc1cccc2cc([C@H]3c4nc[nH]c4CCN3C(=O)c3nnc(C4CC4)o3)nn12 [Example 941]",
    "TARGET SYSTEM": "human PAH with the R408W mutation (Homo sapiens, UniProt P00439, R408W)",
    "AC50": "> 5 µM"
  },
  {
    "MOLECULE": "COc1ccc(-c2nnc(C(=O)N3CCc4[nH]cnc4[C@@H]3c3cc4cccc(Cl)n4n3)o2)nc1 [Example 1096]",
    "TARGET SYSTEM": "human PAH with the R408W mutation (Homo sapiens, UniProt P00439, R408W)",
    "AC50": "> 5 µM"
  },
  {
    "MOLECULE": "O=C(c1nnc(C2CC(F)(F)C2)o1)N1CCc2[nH]cnc2[C@H]1c1cc2c(C(F)F)cccn2n1 [Example 1602]",
    "TARGET SYSTEM": "human PAH with the R408W mutation (Homo sapiens, UniProt P00439, R408W)",
    "AC50": "0.5 to 1 µM"
  }
]

---

Molecular target: human PAH with the R408W mutation (Homo sapiens, UniProt P00439, R408W)
Construct: expressed in transfected cells
Assay: Cell Based Phenylalanine Flux Assay
Settings: A375 cells expressing human R408W PAH; 24 hrs compound incubation; 13C-Tyrosine by LC-MS; average where tested multiple times; read-out: AC50
AC50 reference
REPORTED METRIC: AC50

[
  {
    "MOLECULE": "O=C(CC1(O)CCC1)N1CCc2[nH]cnc2[C@@H]1c1cc2ccccn2n1",
    "REPORTED METRIC": "AC50",
    "OBSERVED RESULT": "1000 to 5000 nM"
  },
  {
    "MOLECULE": "CC(C)(O)c1nc(C(F)F)c(C(=O)N2CCc3[nH]cnc3[C@H]2c2cc3c(C(F)(F)F)cccn3n2)o1",
    "REPORTED METRIC": "AC50",
    "OBSERVED RESULT": "< 500 nM"
  },
  {
    "MOLECULE": "O=C(c1nnc(N2CCC(F)CC2)o1)N1CCc2[nH]cnc2[C@H]1c1cc2c(F)cccn2n1",
    "REPORTED METRIC": "AC50",
    "OBSERVED RESULT": "< 500 nM"
  },
  {
    "MOLECULE": "O=C(c1ccnn1C(F)F)N1CCc2[nH]cnc2[C@H]1c1cc2ccc(F)cn2n1",
    "REPORTED METRIC": "AC50",
    "OBSERVED RESULT": "500 to 1000 nM"
  },
  {
    "MOLECULE": "O=C(c1nnc(C2CCC2)o1)N1CCc2[nH]cnc2[C@@H]1c1cc2cccc(Cl)n2n1",
    "REPORTED METRIC": "AC50",
    "OBSERVED RESULT": "> 5000 nM"
  },
  {
    "MOLECULE": "CC(O)c1nc(Br)c(C(=O)N2CCc3[nH]cnc3[C@H]2c2cc3ccccn3n2)o1 (single isomer, unassigned) [Example 997]",
    "REPORTED METRIC": "AC50",
    "OBSERVED RESULT": "< 500 nM"
  },
  {
    "MOLECULE": "CN(C)Cc1ccc2c(C(=O)N3CCc4[nH]cnc4[C@H]3c3cc4c(Cl)cccn4n3)cnn2c1",
    "REPORTED METRIC": "AC50",
    "OBSERVED RESULT": "500 to 1000 nM"
  }
]

---

AC50 reference
Biological target: human PAH with the R408W mutation (Homo sapiens, UniProt P00439, R408W)
Construct: expressed in transfected cells
Test: Cell Based Phenylalanine Flux Assay;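 note: after compound treatment, cells received sepiapterin plus isotope-labelled Phenylalanine for 4 hours, then labelled Tyrosine in the medium was quantified, 10-point 2-fold dilution series run in duplicate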
Settings: A375 cells expressing R408W PAH; 24 hrs with compound, then 20 µM sepiapterin and 800 µM 13C9,15N-Phenylalanine for 4 hours; 13C-Tyrosine by LC-MS; average where tested multiple times; read-out: AC50
REPORTED METRIC: AC50

[
  {
    "COMPOUND": "CC(C)c1nnc(N2CCc3[nH]cnc3C2c2cc3c(C4CC4)cccn3n2)o1 (stereo not shown)",
    "OBSERVED RESULT": "> 5 µM"
  },
  {
    "COMPOUND": "O=C(Cc1nncs1)N1CCc2nc[nH]c2C1c1cc2ccccn2n1 (stereo not shown)",
    "OBSERVED RESULT": "1 to 5 µM"
  },
  {
    "COMPOUND": "COCc1ncc(C(=O)N2CCc3[nH]cnc3C2c2cc3ccccn3n2)s1 (stereo not shown)",
    "OBSERVED RESULT": "1 to 5 µM"
  },
  {
    "COMPOUND": "Nc1cnc(N2CCc3[nH]cnc3C2c2cc3cccc(C(F)(F)F)n3n2)nc1 (stereo not shown)",
    "OBSERVED RESULT": "> 5 µM"
  },
  {
    "COMPOUND": "O=C(c1cn[nH]c1Cl)N1CCc2[nH]cnc2C1c1cc2ccccn2n1 (stereo not shown)",
    "OBSERVED RESULT": "1 to 5 µM"
  },
  {
    "COMPOUND": "Fc1ccc(-c2nnc(N3CCc4[nH]cnc4C3c3cc4ccccn4n3)o2)nc1 (stereo not shown)",
    "OBSERVED RESULT": "1 to 5 µM"
  },
  {
    "COMPOUND": "O=C(c1nnc(C2CC2)o1)N1CCc2[nH]cnc2C1c1cc2ccc(C(F)(F)F)cn2n1 (stereo not shown)",
    "OBSERVED RESULT": "1 to 5 µM"
  },
  {
    "COMPOUND": "Cc1ccn2nc(C3c4nc[nH]c4CCN3C(=O)c3nnc(C4CC4)o3)cc2c1 (stereo not shown)",
    "OBSERVED RESULT": "1 to 5 µM"
  },
  {
    "COMPOUND": "CC(C)(O)c1nnc(C(=O)N2CCc3[nH]cnc3C2c2cc3ccc(C(F)(F)F)cn3n2)o1 (stereo not shown)",
    "OBSERVED RESULT": "1 to 5 µM"
  },
  {
    "COMPOUND": "COc1ccc2c(C(=O)N3CCc4[nH]cnc4C3c3cc4c(OC)cccn4n3)cnn2c1 (stereo not shown)",
    "OBSERVED RESULT": "> 5 µM"
  },
  {
    "COMPOUND": "c1ccn2nc(C3c4nc[nH]c4CCN3c3nnc(-c4ccncn4)o3)cc2c1 (stereo not shown)",
    "OBSERVED RESULT": "1 to 5 µM"
  },
  {
    "COMPOUND": "N#Cc1ncoc1C(=O)N1CCc2[nH]cnc2[C@H]1c1nn2ccccc2c1Br (single isomer, unassigned)",
    "OBSERVED RESULT": "1 to 5 µM"
  },
  {
    "COMPOUND": "FC(F)(F)c1cccn2nc(C3c4nc[nH]c4CCN3c3nc4ccccc4o3)cc12 (stereo not shown)",
    "OBSERVED RESULT": "> 5 µM"
  },
  {
    "COMPOUND": "FC(F)(F)c1cccn2nc([C@@H]3c4nc[nH]c4CCN3c3nnc(-c4ncccn4)o3)cc12 (single isomer, unassigned)",
    "OBSERVED RESULT": "1 to 5 µM"
  },
  {
    "COMPOUND": "Cc1cccn2nc(C3c4nc[nH]c4CCN3C(=O)c3nnc(-c4cn[nH]c4)o3)cc12 (stereo not shown)",
    "OBSERVED RESULT": "1 to 5 µM"
  },
  {
    "COMPOUND": "Cc1nnc(C(=O)N2CCc3[nH]cnc3[C@H]2c2cc3ccc(F)cn3n2)o1 (single isomer, unassigned)",
    "OBSERVED RESULT": "1 to 5 µM"
  },
  {
    "COMPOUND": "CC(C)(O)c1cc(C(=O)N2CCc3[nH]cnc3C2c2cc3ccccn3n2)no1 (stereo not shown)",
    "OBSERVED RESULT": "> 5 µM"
  },
  {
    "COMPOUND": "O=C(c1ocnc1C(F)F)N1CCc2[nH]cnc2C1c1cc2c(Cl)cccn2n1 (stereo not shown)",
    "OBSERVED RESULT": "1 to 5 µM"
  },
  {
    "COMPOUND": "COCc1ccc2c(C(=O)N3CCc4[nH]cnc4C3c3cc4cccc(Cl)n4n3)cnn2c1 (stereo not shown)",
    "OBSERVED RESULT": "> 5 µM"
  }
]

This collection of values is drawn from patent US20230365592A1.
